Kindly supply the reported shrunken log2 fold change values for the records listed here.
- System: Escherichia coli TOP10;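 further: peptides expressed intracellularly from a pBAD plasmid library in pooled LB shake-flask culture, induced with 0.3% L-arabinose, DNA abundance read by NGS, three biological replicates, DESeq2 with apeglm shrinkage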
- assay.explanation: shrunken log2 fold change of peptide-encoding DNA abundance (4.5 h post-induction vs induction); higher = less antimicrobial activity (less host growth inhibition)
- run.parameters: time post-induction: 4.5 h; library: site-saturation at positions 5, 18, 19, 20
Give bare numbers.

| sequence.content | target.under.test | readout.number |
| --- | --- | --- |
| RRIRKRPPRLPRPRPRPKIIPRP | Escherichia coli TOP10 | -0.135 |
| RRIRFRPPRLPRPRPRPRECPRP | Escherichia coli TOP10 | 0.277 |
| RRIRPRPPRLPRPRPRPGEWPRP | Escherichia coli TOP10 | 0.214 |
| RRIRWRPPRLPRPRPRPSCEPRP | Escherichia coli TOP10 | 0.19 |
| RRIRMRPPRLPRPRPRPETKPRP | Escherichia coli TOP10 | 0.253 |

For each of the sequences below, state shrunken log2 fold change.
1. RRIRGRPPRLPRPRPRPLILPRP
2. RRIRWRPPRLPRPRPRPVRLPRP
3. RRIRERPPRLPRPRPRPMGVPRP
4. RRIRIRPPRLPRPRPRPLVIPRP
5. RRIRKRPPRLPRPRPRPEVHPRP
6. RRIRSRPPRLPRPRPRPQVSPRP

Given back:
1. 0.203
2. 0.428
3. 0.22
4. -1.46
5. 0.013
6. -0.236

Batch lookup, shrunken log2 fold change per entry.
1. RRIRVRPPRLPRPRPRPDAVPRP
2. RRIRFRPPRLPRPRPRPISPPRP
3. RRIRQRPPRLPRPRPRPKSPPRP
4. RRIRKRPPRLPRPRPRPEYCPRP
5. RRIRTRPPRLPRPRPRPQVDPRP
6. RRIRDRPPRLPRPRPRPFSRPRP

Given back:
1. 0.141
2. -0.211
3. -0.089
4. 0.109
5. -0.0209
6. -0.164

State recorded shrunken log2 fold change for all listed sequences.
1. RRIRKRPPRLPRPRPRPMNEPRP
2. RRIRSRPPRLPRPRPRPNFVPRP
3. RRIRFRPPRLPRPRPRPWICPRP
4. RRIRARPPRLPRPRPRPGPNPRP
5. RRIRGRPPRLPRPRPRPFKIPRP
6. RRIRQRPPRLPRPRPRPPCHPRP
7. RRIRHRPPRLPRPRPRPYVTPRP
8. RRIRLRPPRLPRPRPRPLKVPRP

Given back:
[0.22, -0.0465, -1.05, 0.66, 0.0381, 0.0591, -0.182, -0.0503]

I need shrunken log2 fold change for every entry listed below, if you could help.
1. RRIRGRPPRLPRPRPRPDVKPRP
2. RRIRDRPPRLPRPRPRPLFIPRP
3. RRIRRRPPRLPRPRPRPCKVPRP
4. RRIRNRPPRLPRPRPRPARSPRP

Given back:
1. 0.356
2. -0.184
3. -0.0103
4. 0.679

Hi! Can you tell me shrunken log2 fold change for each of these sequences?
1. RRIRKRPPRLPRPRPRPWPDPRP
2. RRIRVRPPRLPRPRPRPVFAPRP
3. RRIRERPPRLPRPRPRPWTVPRP
4. RRIRKRPPRLPRPRPRPRYLPRP
5. RRIRNRPPRLPRPRPRPQFHPRP
6. RRIRKRPPRLPRPRPRPRYKPRP
7. RRIRKRPPRLPRPRPRPDPGPRP

Given back:
[0.238, 0.217, 0.0377, -0.179, -0.28, 0.15, 0.335]

Okay, here is my list. What is shrunken log2 fold change for each of these?
1. RRIRLRPPRLPRPRPRPIIYPRP
2. RRIRCRPPRLPRPRPRPEPNPRP
3. RRIRYRPPRLPRPRPRPSMPPRP

Given back:
1: -0.196; 2: 0.265; 3: -1.69

Below are some sequences; for each one, tell me its shrunken log2 fold change.
1. RRIRERPPRLPRPRPRPPFAPRP
2. RRIRIRPPRLPRPRPRPNEGPRP
3. RRIRSRPPRLPRPRPRPARTPRP
4. RRIRVRPPRLPRPRPRPWVLPRP
5. RRIRLRPPRLPRPRPRPYEFPRP
6. RRIRIRPPRLPRPRPRPKAMPRP
7. RRIRARPPRLPRPRPRPRTTPRP
8. RRIRYRPPRLPRPRPRPRWWPRP

Given back:
1. 0.403
2. -0.45
3. 0.293
4. 0.054
5. -0.111
6. -0.161
7. 0.755
8. 0.189

Batch: shrunken log2 fold change for all items listed.
1. RRIRDRPPRLPRPRPRPQERPRP
2. RRIRKRPPRLPRPRPRPFKDPRP

Given back:
1. 0.0671
2. -0.0776
